pIC50: −log10 of the molar value.
A short record of pIC50 observed with UniProt:Q13153 follows.
Sequence (Q13153 whole entry): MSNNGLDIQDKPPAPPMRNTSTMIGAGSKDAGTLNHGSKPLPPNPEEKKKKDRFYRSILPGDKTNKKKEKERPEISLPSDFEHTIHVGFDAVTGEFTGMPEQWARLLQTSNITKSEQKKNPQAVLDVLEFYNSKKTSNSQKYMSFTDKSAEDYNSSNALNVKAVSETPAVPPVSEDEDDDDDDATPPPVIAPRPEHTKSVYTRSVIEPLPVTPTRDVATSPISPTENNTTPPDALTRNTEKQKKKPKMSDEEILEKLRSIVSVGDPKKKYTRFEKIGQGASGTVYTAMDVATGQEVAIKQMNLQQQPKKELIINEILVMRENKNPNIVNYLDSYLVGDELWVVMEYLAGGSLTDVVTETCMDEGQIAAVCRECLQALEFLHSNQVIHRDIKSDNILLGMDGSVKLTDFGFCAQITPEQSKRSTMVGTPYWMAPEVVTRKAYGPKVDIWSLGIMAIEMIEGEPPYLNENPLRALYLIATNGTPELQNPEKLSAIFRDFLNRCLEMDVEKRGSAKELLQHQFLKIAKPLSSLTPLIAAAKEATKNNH

# count of solved cases: 5
CN1CCN(c2ccc(Nc3ncc4ccc(=O)n(Cc5ccccc5C5CC5)c4n3)cc2)CC1
> 6.00
CN1CCN(c2ccc(Nc3ncc4ccc(=O)n(Cc5ccccc5-c5ccccc5)c4n3)cc2)CC1
> 6.00
CC(=O)N1CCN(c2ccc(Nc3nccc(-c4ccc(NCCN)nc4)n3)cc2)CC1
< 5.00
CN1CCN(c2ccc(Nc3ncc4ccc(=O)n(Cc5c(Cl)cccc5C5CC5)c4n3)cc2)CC1
> 6.00
CN1CCN(c2ccc(Nc3nccc(-c4ccc(NCCN)nc4)n3)cc2)CC1.Cl [Compound 94, hydrochloride]
> 6.00

Please report pIC50 for every entry that follows.
1. CN1CCN(c2ccc(Nc3ncc4ccc(=O)n(Cc5c(F)cccc5Cl)c4n3)cc2)CC1
2. CN1CCN(c2ccc(Nc3nccc(-c4ccc(NCCN5CCOCC5)nc4)n3)cc2)CC1
3. CN1CCN(c2ccc(Nc3ncc4cc(-c5ccccc5)c(=O)n(Cc5ccccc5C(F)(F)F)c4n3)cc2)CC1

Result:
1: > 6.00; 2: 5.00 to 6.00; 3: > 6.00
